Molecular target: IRAP (Homo sapiens)
Construct: The screen was performed with the soluble truncated IRAP enzyme; made in house
Sequence (Q9UIQ6 155-1025 limits assumed): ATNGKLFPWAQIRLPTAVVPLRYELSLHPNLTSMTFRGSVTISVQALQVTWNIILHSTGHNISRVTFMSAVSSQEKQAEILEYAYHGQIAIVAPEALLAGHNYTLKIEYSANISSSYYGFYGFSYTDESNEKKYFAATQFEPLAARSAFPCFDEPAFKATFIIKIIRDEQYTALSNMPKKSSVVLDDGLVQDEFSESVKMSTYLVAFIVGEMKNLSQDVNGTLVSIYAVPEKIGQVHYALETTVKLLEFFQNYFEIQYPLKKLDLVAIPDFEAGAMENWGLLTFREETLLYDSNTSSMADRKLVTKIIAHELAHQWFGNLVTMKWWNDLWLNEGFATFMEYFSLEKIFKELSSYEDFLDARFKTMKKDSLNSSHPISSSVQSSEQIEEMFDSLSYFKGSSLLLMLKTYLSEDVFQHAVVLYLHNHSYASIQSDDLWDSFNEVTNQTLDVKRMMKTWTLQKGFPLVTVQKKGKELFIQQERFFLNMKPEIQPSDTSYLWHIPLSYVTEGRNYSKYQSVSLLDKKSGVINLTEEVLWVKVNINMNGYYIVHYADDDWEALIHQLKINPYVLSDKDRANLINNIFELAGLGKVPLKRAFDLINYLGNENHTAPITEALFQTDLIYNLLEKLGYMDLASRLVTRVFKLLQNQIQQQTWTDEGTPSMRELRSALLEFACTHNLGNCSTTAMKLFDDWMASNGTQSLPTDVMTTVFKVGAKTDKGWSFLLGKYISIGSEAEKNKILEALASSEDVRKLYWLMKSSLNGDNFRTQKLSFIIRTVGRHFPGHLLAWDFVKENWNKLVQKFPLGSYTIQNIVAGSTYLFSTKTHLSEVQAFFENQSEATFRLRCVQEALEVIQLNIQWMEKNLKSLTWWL
Experiment: Thermal shift (TSA) IRAP assay
Format: binding
Conditions: screening hits at 30 µM, 1% DMSO
Labels assigned by ΔTm at 30 µM range: bin A: < 0.1 °C; bin B: ≥ 0.1 °C and < 4 °C; bin C: ≥ 4 °C

- compound: "Cc1cccc(Cl)c1CNc1ncnc2ncn(C)c12"
  discrete.label: "bin A"
- compound: "Cc1cc(NC(=O)Cn2cnc3sc4c(c3c2=O)CCCC4)n(-c2ccccc2)n1"
  discrete.label: "bin B"
- compound: "O=C(Cc1ccccc1S(=O)(=O)N1CCc2ccccc2C1)NO"
  discrete.label: "bin C"
- compound: "O=C(COCc1ccccc1)N1CCc2n[nH]c(-c3cccs3)c2CC1"
  discrete.label: "bin B"
- compound: "CSc1[nH]c(-c2ccccc2)nc1S(=O)(=O)c1ccccc1"
  discrete.label: "bin B"
- compound: "O=C(Cc1cc(N2CCCCC2)nc(-c2cccc(F)c2)n1)NO"
  discrete.label: "bin B"
- compound: "O=C1CN(c2cc(=O)n3ccn(Cc4ccc(F)cc4Cl)c3n2)CCN1"
  discrete.label: "bin B"
- compound: "O=C(NO)C(CS(=O)(=O)N1CCC(c2ccc(F)cc2Cl)CC1)C1CCOCC1 (centres unmarked)"
  discrete.label: "bin C"
- compound: "CC(C)[C@@H](CS(=O)(=O)N(C)Cc1sc2ccccc2c1Cl)C(=O)NO"
  discrete.label: "bin C"
- compound: "O=c1cc(N2CCCC2)nc2n(Cc3cc(Cl)ccc3Cl)ccn12"
  discrete.label: "bin A"
- compound: "O=C(NO)C(CS(=O)(=O)N1CCC(c2ccc(F)cc2Cl)C1)C1CCOCC1 (centres unmarked)"
  discrete.label: "bin B"
- compound: "NCC[C@H]1CCCCN1C(=O)Cn1nc(-c2ccc(Cl)cc2)c2c1CCCC2"
  discrete.label: "bin B"
- compound: "CC(C)[C@@H](CS(=O)(=O)N(C)CC1CCc2ccccc2C1)C(=O)NO (some centres unmarked)"
  discrete.label: "bin B"
- compound: "CC(C)n1cc(C(=O)N2CCc3n[nH]c(-c4cccc(F)c4)c3CC2)cn1"
  discrete.label: "bin A"
- compound: "O=C(NO)C1(CS(=O)(=O)N2CCC(c3ccc(F)cc3Cl)C2)CCC1 (centres unmarked)"
  discrete.label: "bin C"
- compound: "CC(C)c1cc(C(=O)N2CCc3n[nH]c(-c4cccs4)c3CC2)[nH]n1"
  discrete.label: "bin B"
- compound: "CCCNc1nc(N(C)C)nc2cc(OC)c(OC)cc12"
  discrete.label: "bin B"
- compound: "COc1ccc([C@@H]2c3nnnn3CCN2CCCN(C)c2ccccc2)c(C)c1"
  discrete.label: "bin A"

###

Molecular target: IRAP (Homo sapiens)
Construct: The screen was performed with the soluble truncated IRAP enzyme; made in house
Experiment: Deselection fluorescence IRAP assay with 10 µM zinc
Format: biochemical
Settings: 10 µM ZnSO4 in assay buffer; read-out: Fluorescence + Zn pIC50 (converted)
# yes = IC50 below 3 µM (exclusive); no = IC50 at/above 3 µM

- compound: "CSc1[nH]c(-c2ccccc2)nc1S(=O)(=O)c1ccccc1"
  discrete.label: "no"
- compound: "O=C1CN(c2cc(=O)n3ccn(Cc4ccc(F)cc4Cl)c3n2)CCN1"
  discrete.label: "no"
- compound: "NCC[C@H]1CCCCN1C(=O)Cn1nc(-c2ccc(Cl)nc2)c2c1CCCC2"
  discrete.label: "no"
- compound: "CC(C)C(CS(=O)(=O)N1CCC(c2ccc(F)cc2Cl)C1)C(=O)NO (stereo not shown)"
  discrete.label: "yes"
- compound: "O=C(Cc1ccccc1S(=O)(=O)N1CCc2ccccc2C1)NO"
  discrete.label: "yes"
- compound: "O=C(Cc1cc(N2CCCCCC2)nc(-c2ccc(Cl)cc2)n1)NO"
  discrete.label: "no"
- compound: "O=C(COCc1ccccc1)N1CCc2n[nH]c(-c3cccs3)c2CC1"
  discrete.label: "yes"
- compound: "Cc1cc(NC(=O)Cn2cnc3sc4c(c3c2=O)CCCC4)n(-c2ccccc2)n1"
  discrete.label: "no"
- compound: "NCC[C@H]1CCCCN1C(=O)Cn1nc(-c2ccc(Cl)cc2)c2c1CCCC2"
  discrete.label: "yes"
- compound: "Cc1cccc(Cl)c1CNc1ncnc2ncn(C)c12"
  discrete.label: "yes"

Hey, just so you know, these numbers are from paper PMC11012289.
